TARGET OR TEST SYSTEM: KLKB1 (Homo sapiens (Human))
Sequence (P03952 391-638 limits assumed): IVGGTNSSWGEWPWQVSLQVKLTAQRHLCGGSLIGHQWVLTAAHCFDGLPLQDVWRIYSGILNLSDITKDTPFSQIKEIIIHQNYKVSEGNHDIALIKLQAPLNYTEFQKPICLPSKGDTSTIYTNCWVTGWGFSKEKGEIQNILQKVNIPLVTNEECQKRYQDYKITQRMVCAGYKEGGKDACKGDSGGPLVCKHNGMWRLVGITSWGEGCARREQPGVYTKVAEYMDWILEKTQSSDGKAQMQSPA
Sequence (P03952 20-390 partner limits assumed): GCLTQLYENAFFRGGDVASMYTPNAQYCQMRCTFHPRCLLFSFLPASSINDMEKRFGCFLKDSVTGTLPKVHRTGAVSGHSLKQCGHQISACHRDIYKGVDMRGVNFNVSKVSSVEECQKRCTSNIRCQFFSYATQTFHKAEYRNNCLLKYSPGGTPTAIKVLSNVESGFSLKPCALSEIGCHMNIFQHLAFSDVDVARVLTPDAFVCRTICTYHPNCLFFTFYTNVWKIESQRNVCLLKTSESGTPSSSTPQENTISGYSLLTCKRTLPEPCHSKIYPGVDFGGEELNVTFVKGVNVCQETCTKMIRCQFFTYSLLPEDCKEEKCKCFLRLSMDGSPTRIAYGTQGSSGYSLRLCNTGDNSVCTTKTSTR
TEST DETAILS: Inhibition of KLKB1 using an endpoint assay (fluorogenic substrate H-Pro-Phe-Arg-AMC)
Assay type: biochemical
CONDITIONS USED: endpoint assay, 1 h at room temperature, 0.10 μM H-Pro-Phe-Arg-AMC; read-out: IC50
RECORDED ENDPOINT: IC50 (nM)
Dear colleague, please return just the value in nM, with no unit written.

Cc1cc2c(c(N)n1)CC[C@H]2NC(=O)c1cn(Cc2cnc(N3CC4C(C3)C4(F)F)nc2C)nn1 (stereo partly shown) ... 1.4

I would be grateful if you could share the reported IC50 for Cc1cc2c(c(N)n1)CC[C@H]2NC(=O)c1cnn(Cc2cnc(N3CC4CC4C3)nc2C)c1 (stereo partly shown) .
1

I would be grateful if you could share the reported IC50 for Cc1nc(N2CC3(CC3)C2)ccc1Cn1cc(C(=O)N[C@@H]2CCc3c2ccnc3N)cn1 .
1.2
